Recorded measurements of RAM network inhibition, one per entry
assay: RAM signaling pathway blockade in yeast – S. cerevisiae, Pdr1DBD-CYC8 efflux-inhibited sensitized strain, primary screen (AID 1298);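 also: 0% = DMSO untreated cells without growth and 100% = 10 µM 1-NA-PP1 full growth; higher means more yeast growth rescued from 5-FOA killing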; conditions: S. cerevisiae cbk1-as DSE1-URA3 strain, 5-FOA growth OD615, 2 d; at 50 µM; hits give high values
# unit: % | format: bare number

>>> quantitative_readout("CC(NC(=O)CN1CCN(Cc2ccc(Cl)cc2)C1=O)c1ccc2c(c1)OCCO2 (stereo not drawn)")
0.27
>>> quantitative_readout("CCN(CCNC(=O)Cn1cc2c(n1)CCCC2)c1ccccc1")
0.1

API: the following record is the query input.
Exercise: May I ask what RAM network inhibition has been recorded for `O=C(CSc1nc(-c2ccncc2)nn1CC(=O)N1CCCCC1)NC1CCCC1` ?
Solution: -1.59
